tested on: MAP4K4; details: concentration: 1 μM,replicates: in singlicate; n = 1;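 further: KINOMEscan kinase panel screen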
Measured Parameter: %Inh (%)
Record the value in %, omitting the unit from your answer.

Reference set, count: 3
{"Compound": "CN(c1ccc2c(c1)nc(NCc1ccc(F)cc1)n2C)c1ccnc(Nc2ccc(CS(C)(=O)=O)cc2)n1.Cl", "Measured Parameter": "%Inh", "Quantity Unit": "%", "Endpoint Result": 10}
{"Compound": "Cc1ccc(Nc2ccnc(Nc3ccc4c(c3)CS(=O)(=O)C4)n2)cc1O.Cl", "Measured Parameter": "%Inh", "Quantity Unit": "%", "Endpoint Result": 52}
{"Compound": "Cn1ccc2ncnc(Oc3ccc(NC(=O)Nc4cncc(C(F)(F)F)c4)c(Cl)c3)c21", "Measured Parameter": "%Inh", "Quantity Unit": "%", "Endpoint Result": 0}

API: the following record is the query input.
Recorded %Inh of Cc1nnc(-c2ccc3occ(-c4ccc(S(C)=O)cc4)c3n2)o1 (stereo not shown) , please.
0

Provenance of the data: paper PMC5540273
